Molecular target: PRMT5 (Homo sapiens, UniProt O14744)
Construct: purchased Viva (custom protein)
Sequence (O14744 whole entry): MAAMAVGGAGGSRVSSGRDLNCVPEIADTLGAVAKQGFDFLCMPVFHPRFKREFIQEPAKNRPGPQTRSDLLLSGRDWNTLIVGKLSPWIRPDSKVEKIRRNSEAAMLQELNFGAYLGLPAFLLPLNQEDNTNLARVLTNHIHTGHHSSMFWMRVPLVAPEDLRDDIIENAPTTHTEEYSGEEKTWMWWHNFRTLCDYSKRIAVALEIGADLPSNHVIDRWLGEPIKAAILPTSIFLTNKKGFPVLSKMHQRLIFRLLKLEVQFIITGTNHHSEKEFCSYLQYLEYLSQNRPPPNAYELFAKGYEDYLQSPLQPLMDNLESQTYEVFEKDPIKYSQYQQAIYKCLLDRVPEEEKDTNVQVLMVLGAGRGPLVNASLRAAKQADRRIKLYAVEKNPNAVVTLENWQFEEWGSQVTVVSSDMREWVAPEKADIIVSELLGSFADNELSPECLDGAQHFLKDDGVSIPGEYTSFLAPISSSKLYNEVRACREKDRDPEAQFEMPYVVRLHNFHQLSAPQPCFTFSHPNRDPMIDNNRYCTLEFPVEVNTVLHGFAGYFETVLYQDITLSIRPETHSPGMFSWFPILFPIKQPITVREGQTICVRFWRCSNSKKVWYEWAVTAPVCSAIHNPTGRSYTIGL
Sequence (Q9BQA1 whole entry partner): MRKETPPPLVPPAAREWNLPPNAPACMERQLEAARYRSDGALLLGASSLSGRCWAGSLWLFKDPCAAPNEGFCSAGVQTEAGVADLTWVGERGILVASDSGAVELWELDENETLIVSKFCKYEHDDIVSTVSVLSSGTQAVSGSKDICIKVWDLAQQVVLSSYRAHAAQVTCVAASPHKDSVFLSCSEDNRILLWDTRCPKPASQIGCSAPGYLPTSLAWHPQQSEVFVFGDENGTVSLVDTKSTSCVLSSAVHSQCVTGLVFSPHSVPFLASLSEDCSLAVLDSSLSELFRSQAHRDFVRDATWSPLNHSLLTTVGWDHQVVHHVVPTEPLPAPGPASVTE
Assay: PRMT5 biochemical IC50 assay with no cofactor
Conditions: PRMT5, no cofactor; read-out: No Cofactor/ rel IC50
pIC50: −log10 of the molar value.
Listed below: pIC50 values for each entry.
property: pIC50

- Cc1csc(C2CCCCN2C(=O)C(=O)Nc2cnc(N)c(C)c2)n1 (stereo not shown) [Compound 49]: 6.30 to 7.30
- COc1ncc(NC(=O)C(=O)N2C[C@@H](C)CC[C@@H]2c2ccc3sc([C@H]4CCN(C)C4)nc3c2)cc1C(N)=O (racemic) [Compound 1260]: > 7.30
- NC(=O)c1cncc(NC(=O)C(=O)N2CCC3CCCCCC3C2)c1 (racemic) [Compound 133]: < 6.30
- CCc1cc(NC(=O)C(=O)N2C[C@@H](C)CC[C@@H]2c2ccc3sc(C4CCOC4)nc3c2)cnc1N (stereo partly shown) [Compound 1242]: > 7.30

* * *

Target: PRMT5 (Homo sapiens)
Construct: purchased Viva (custom protein)
Assay: PRMT5 biochemical IC50 assay with no cofactor
Conditions: PRMT5, no cofactor; read-out: No Cofactor/rel IC50
property: IC50

* Cc1cc(NC(=O)C(=O)N2C[C@H](C)C[C@H](C)[C@H]2c2ccccc2)cnc1N (single isomer, unassigned) [Compound 343] | > 500 nM
* Cc1ccc([C@@H]2CC[C@@H](C)CN2C(=O)C(=O)Nc2cncc(C(N)=O)c2)cc1C (racemic) [Compound 180] | 50 to 500 nM
* Cc1ncc(NC(=O)C(=O)N2C[C@@H](C)CC[C@@H]2c2ccc3sc(C4CCN(C)CC4)nc3c2)cc1Cl [Compound 1102] | < 50 nM
* NC(=O)c1cncc(NC(=O)C(=O)N2CCCCC2C2CCCC2)c1 (stereo not shown) [Compound 240] | 50 to 500 nM

* * *

Biological target: PRMT5 (Homo sapiens)
Construct: purchased Viva (custom protein)
Test: PRMT5 biochemical IC50 assay with SAM as cofactor
Settings: PRMT5, SAM as cofactor; read-out: SAM IC50
property: IC50

* CCc1cc(NC(=O)C(=O)N2C[C@@H](C)CC[C@@H]2c2ccc3sc(-c4ccncc4)nc3c2)cnc1N [Compound 1194] | 50 to 500 nM
* C[C@@H]1CC[C@@H](c2ccc3cn(C)nc3c2)N(C(=O)C(=O)Nc2cnc(N)c(C3CC3)c2)C1 (single isomer, unassigned) [Compound 1403] | 50 to 500 nM
* Cc1cc(NC(=O)C(=O)N2CCCC[C@H]2c2ccccc2)cnc1N (single isomer, unassigned) [Compound 55] | > 500 nM
* CCc1cc(NC(=O)C(=O)N2[C@@H](c3ccc4sc(C5CCN(C)CC5)nc4c3)CCC[C@@H]2C)cnc1N [Compound 1395] | 50 to 500 nM
* C[C@@H]1CC[C@H](c2ccc(O)nc2)N(C(=O)C(=O)Nc2cncc(C(N)=O)c2)C1 (single isomer, unassigned) [Compound 401] | 50 to 500 nM
* Cc1cc(NC(=O)C(=O)N2C[C@H](C)CC[C@H]2c2ccc3c(c2)C(=O)NC3)cnc1N (racemic) [Compound 582] | 50 to 500 nM

* * *

Biological target: PRMT5 (Homo sapiens)
Construct: purchased Viva (custom protein)
Experiment: PRMT5 biochemical IC50 assay with no cofactor
Conditions: PRMT5, no cofactor; read-out: No Cofactor/rel IC50
pIC50: −log10 of the molar value.
property: pIC50

• Cc1cc(NC(=O)C(=O)N2C[C@@H](C)CC[C@@H]2c2cccc3c2CCN3)cnc1N (single isomer, unassigned) = < 6.30
• C[C@@H]1CC[C@@H](c2ccc(N)nc2)N(C(=O)C(=O)Nc2cncc(C(N)=O)c2)C1 (racemic) [Compound 224] = 6.30 to 7.30
• Cc1cc(NC(=O)C(=O)N2C[C@H](C)CC[C@H]2c2cnc3[nH]ncc3c2)cnc1N (single isomer, unassigned) = 6.30 to 7.30
• CCc1ncc(NC(=O)C(=O)N2C[C@@H](C)CC[C@@H]2c2ccccc2)cc1C(N)=O (racemic) = 6.30 to 7.30
• Cc1cc(NC(=O)C(=O)N2C[C@H](C)CC[C@H]2c2ccc(-c3cncs3)cc2)cnc1N (single isomer, unassigned) = < 6.30
• COc1ncc(NC(=O)C(=O)N2C[C@H](C)CC[C@H]2c2ccc3[nH]c(C)nc3c2)cc1C(N)=O (single isomer, unassigned) = > 7.30
• CCc1cc(NC(=O)C(=O)N2C[C@@H](C)CC[C@@H]2c2ccc3sc(C(F)(F)F)nc3c2)cnc1N (single isomer, unassigned) = > 7.30
• COc1ncc(NC(=O)C(=O)N2C[C@@H](C)CC[C@@H]2c2ccc(NC(C)=O)nc2)cc1C(N)=O (single isomer, unassigned) = < 6.30
• CCc1cc(NC(=O)C(=O)N2C[C@@H](C)CC[C@@H]2c2ccc3sc(-c4ccncc4)nc3c2)cnc1N = > 7.30
• COc1ncc(NC(=O)C(=O)N2C[C@@H](C)CC[C@@H]2C2CCCC2)cc1C(N)=O (single isomer, unassigned) = < 6.30
• Cc1cc([C@@H]2CC[C@@H](C)CN2C(=O)C(=O)Nc2cncc(C(N)=O)c2)ccn1 (single isomer, unassigned) = < 6.30
• COc1ncc(NC(=O)C(=O)N2C[C@H](C)CC[C@H]2C2CCCC2)cc1C(N)=O (single isomer, unassigned) = 6.30 to 7.30
• Cc1cc(NC(=O)C(=O)N2C[C@@H](C)CC[C@@H]2c2cccc(N3CCN(C)CC3)c2)cnc1N (single isomer, unassigned) = > 7.30
• C[C@@H]1CC[C@@H](c2ccc3c(c2)CCCN3)N(C(=O)C(=O)Nc2cncc(C(N)=O)c2)C1 (single isomer, unassigned) = 6.30 to 7.30
• CCc1ccc([C@@H]2CC[C@@H](C)CN2C(=O)C(=O)Nc2cnc(N)c(C)c2)cn1 (single isomer, unassigned) = 6.30 to 7.30
• Cc1cc(NC(=O)C(=O)N2C[C@H](C)CC[C@H]2C2CCCC2)cnc1N (racemic) = 6.30 to 7.30
• CC(=O)Nc1ccc([C@@H]2CC[C@@H](C)CN2C(=O)C(=O)Nc2cncc(C(N)=O)c2)s1 (single isomer, unassigned) = 6.30 to 7.30
• C[C@H]1CC[C@H](c2ccc(F)c(F)c2)N(C(=O)C(=O)Nc2cncc(C(N)=O)c2)C1 (single isomer, unassigned) = 6.30 to 7.30
• C[C@H]1CC[C@H](c2ccccc2)N(C(=O)C(=O)Nc2cncc(C(N)=O)c2)[C@H]1C (single isomer, unassigned) = < 6.30
• C[C@@H]1CC[C@@H](c2ccc(C#N)cc2)N(C(=O)C(=O)Nc2cncc(C(N)=O)c2)C1 (racemic) = 6.30 to 7.30
• COc1ncc(NC(=O)C(=O)N2C[C@@H](C)CC[C@@H]2c2csc3ccccc23)cc1C(N)=O (racemic) = < 6.30
• CC(=O)N1CCC(c2nc3cc([C@H]4CC[C@H](C)CN4C(=O)C(=O)Nc4cnc(N)c(C)c4)ccc3s2)CC1 = > 7.30
• Cc1cc(NC(=O)C(=O)N2C[C@@H](C)CC[C@H]2C23CC(C(N)=O)(C2)C3)cnc1N (single isomer, unassigned) = < 6.30
• CC(=O)N1CCC(c2cccc([C@H]3CC[C@H](C)CN3C(=O)C(=O)Nc3cncc(C(N)=O)c3)c2)CC1 (single isomer, unassigned) = < 6.30
• Cc1cc(NC(=O)C(=O)N2C[C@@H](C)CC[C@@H]2c2ccc(C(F)(F)F)c(Cl)c2)cnc1N (single isomer, unassigned) = 6.30 to 7.30

* * *

Listed below: pIC50 values for each entry.
System: HAP1 MTAP-deleted cell line
Experiment: SDMA in-cell western assay, HAP1 MTAP-deleted
Type: cell-based
Conditions: Homo sapiens, HAP1, SDMA in-cell western, HAP1 MTAP-deleted; read-out: HAP1 MTAP deleted IC50
pIC50: −log10 of the molar value.
property: pIC50

* C[C@H]1CC[C@H](c2ccc(O)nc2)N(C(=O)C(=O)Nc2cncc(C(N)=O)c2)C1 (single isomer, unassigned) [Compound 350] | < 6.00
* Cc1cc(NC(=O)C(=O)N2CCCC[C@@H]2C2CCCC2)cnc1N (single isomer, unassigned) [Compound 336] | < 6.00
* Cc1cc(NC(=O)C(=O)N2CC(C)CC(C)C2c2ccccc2)cnc1N (mixture of isomers) [Compound 314] | 6.00 to 7.00
* NC(=O)c1cncc(NC(=O)C(=O)N2CC[C@@H](O)C[C@H]2c2ccccc2)c1 (racemic) [Compound 185] | < 6.00
* CO[C@@H]1C[C@@H](c2ccc3scnc3c2)N(C(=O)C(=O)Nc2cnc(N)c(C)c2)C[C@@H]1C (single isomer, unassigned) [Compound 1130] | < 6.00
* C[C@H]1CC[C@H](c2cc(F)c(F)c(F)c2)N(C(=O)C(=O)Nc2cncc(C(N)=O)c2)C1 (single isomer, unassigned) [Compound 477] | > 7.00
* COc1ncc(NC(=O)C(=O)N2C[C@H](C)CC[C@H]2c2ccc(F)cc2)cc1C(N)=O (single isomer, unassigned) [Compound 446] | > 7.00
* CCc1cc(NC(=O)C(=O)N2C[C@@H](C)CC[C@@H]2c2cccc(Oc3cccnc3)c2)cnc1N [Compound 1180] | > 7.00
* C[C@@H]1CC[C@@H](c2ccc(O)nc2)N(C(=O)C(=O)Nc2cncc(C(N)=O)c2)C1 (single isomer, unassigned) [Compound 351] | < 6.00
* Cc1cc(NC(=O)C(=O)N2C[C@H](C)CC[C@H]2c2ccc3[nH]ncc3n2)cnc1N (single isomer, unassigned) [Compound 788] | > 7.00
* C[C@@H]1CC[C@@H](c2ccc(N)nc2)N(C(=O)C(=O)Nc2cncc(C(N)=O)c2)C1 (racemic) [Compound 224] | > 7.00
* Cc1cc(NC(=O)C(=O)N2CC(C)CCC2C2CNC(=O)C2)cnc1N (stereo not shown) [Compound 210] | < 6.00
* CNC(=O)N1CCCC([C@@H]2CC[C@@H](C)CN2C(=O)C(=O)Nc2cnc(N)c(C)c2)C1 (mixture of isomers) [Compound 814] | 6.00 to 7.00

Reference for the values: patent US11999727B2
